Numbers sourced from the NIST ThermoML archive (doi:10.1016/j.jct.2010.12.012).

Parameter refractive index: see the listing below.
Test: refractive index (Na D-line) (dimensionless)
Conditions: 298.15 K; 101.33 kPa; Liquid; Standard Abbe refractometry
Numbers after ± are expanded uncertainties.
observable: refractive index

molecule: C1=CCCCC1
valueMeasured: 1.44378 ± 0.00037

molecule: CC1CCCCC1
valueMeasured: 1.42062 ± 0.00037

molecule: Cc1ccccc1
valueMeasured: 1.49399 ± 0.00031

molecule: C1CCCCC1
valueMeasured: 1.4236 ± 0.00037

molecule: C1CCCCCCC1
valueMeasured: 1.45598 ± 0.00037

molecule: CCCCn1cc[n+](C)c1.COS(=O)(=O)[O-] [1-butyl-3-methylimidazolium methyl sulfate]
valueMeasured: 1.47792 ± 0.00037
